system: NanoLuc luciferase (engineered Oplophorus gracilirostris luciferase); assay: Biochemical NLuc saturation counterscreen for small molecule modulators of PMP22 gene expression - Nano-Glo assay (AID 1508638); details: Secreted NLuc enzyme (filtered S16 cell medium), Nano-Glo luminescence; series mostly up to 57.5 µM
This is one part of the list. Records with an inconclusive call do not appear. Active and inactive are the calls of the source. Calls follow the shape of the dose curve; as a rule, active = well fitted inhibition curve with a large enough effect; inconclusive = small, poorly fitted or top-dose-only effect; inactive = flat fitted curve, though single readings scatter.
Respond with a class label; see active, inactive

// below: answered molecules
{"molecule": "CCC1CCCCN1CCCNC(=O)c1cc2c(Cl)nc3ccccc3c2s1 (configuration not stated)", "tgt": "NanoLuc luciferase (engineered Oplophorus gracilirostris luciferase)", "label_class": "inactive"}
{"molecule": "COc1ccccc1Nc1c2c(nc3ccc(NC(=O)/C=C/c4cc(OC)c(OC)c(OC)c4)cc13)CCCC2", "tgt": "NanoLuc luciferase (engineered Oplophorus gracilirostris luciferase)", "label_class": "active"}
{"molecule": "CCOC(=O)c1ccc(NC(=O)CSc2nc3c([nH]c4ccccc43)c(=O)n2C)cc1", "tgt": "NanoLuc luciferase (engineered Oplophorus gracilirostris luciferase)", "label_class": "inactive"}

Next up:
Call for entry CC(=O)N1CCCc2cc(S(=O)(=O)N3CCCC(C(=O)N4CCN(c5cccc(Cl)c5)CC4)C3)ccc21 (configuration not stated) :
inactive

---

experiment: Stat Signaling Pathway (AID 446); conditions: ME-180 (cervical carcinoma) SIE beta-lactamase reporter, IL-6 stimulated, 5 h; at 7.69 µM (top of the series) unless noted;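 also: ME-180 cervical cancer cells given 40 pM IL-6 alongside compound; SIE-controlled beta-lactamase reporter measured as 460/530 nm FRET emission ratio; % is scaled to controls: 0 for no effect and ±100 for the full control effect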
Records with an inconclusive call do not appear. The source made the active and inactive calls. Calls come from the whole dose curve; as a rule, active = well fitted curve in either direction with a large enough effect (not every such curve was filed as active); inconclusive = small, poorly fitted or top-dose-only effect, or another doubt; inactive = flat fitted curve, though single readings scatter.
Please state which outcome applies, choosing from 1 = active, -1 = inactive

Worked set:
{"structure_notation": "O=c1c(-c2ccccc2)nc2cnc(Nc3ccccc3)nc2n1C[C@H]1CCCO1", "label_class": -1}
{"structure_notation": "Cn1cccc1C(=O)N1CCC2(CCN(Cc3ccncc3)CC2)CC1", "label_class": -1}
{"structure_notation": "COc1ccccc1CN1CCCC2(CCN(C(=O)c3ccncc3)CC2)C1", "label_class": -1}
{"structure_notation": "Cc1nc2cnc(N3CCNCC3)nc2n(C2CC2)c1=O", "label_class": -1}
{"structure_notation": "COc1ccc(-n2c(=O)c(-c3ccc(Cl)cc3)nc3cnc(N4CCOCC4)nc32)cc1", "label_class": 1}

What call does the record list for CN(C)[C@H]1C(=O)C(C(=O)NCN2CCCC2)=C(O)[C@]2(O)C(=O)C3=C(O)c4c(O)cccc4[C@@](C)(O)[C@H]3C[C@@H]12 ?
-1

// query: O=c1c(CCc2ccccc2)nc2cncnc2n1C1CC1
-1

COCCn1c(=O)c(-c2ccccc2)nc2cncnc21 ?
-1

And the next one, O=C(Nc1ccccc1)N1CC2(CCN(C(=O)c3cnccn3)CC2)C1 ?
-1

What would you report for CC(=O)N1CCC[C@@]2(CCN(C(=O)Nc3ccccc3)C2)C1 ?
-1

And for COc1ccc(NC(=O)N2CC3(CCN(C(=O)c4cnccn4)CC3)C2)cc1 ?
-1

Same for CS(=O)(=O)Nc1cccc(-c2cc(NCc3ccccc3)ncn2)c1
-1

Continue with Cn1cccc1C(=O)N1CCC2(CCCN(c3ccccn3)C2)CC1
-1

// repeat for Clc1ccccc1-c1nccc(NCCN2CCOCC2)n1 and report
-1

---

assay: qHTS Assay for Lipid Storage Modulators (AID 1519); details: Drosophila S3 cells, BODIPY lipid droplet/cell ratio, laser cytometry; at 57.5 µM (top of the series); cells loaded with oleic acid; as to activity change, negative = inhibition: % is scaled to controls: 0 for no effect and ±100 for the full control effect
Results filed as inconclusive are left out.
measurement_kind: activity change, negative = inhibition (%)
Report the value in % with no unit label.

{"structure_notation": "COS(C)(=O)=O", "measurement_kind": "activity change, negative = inhibition", "uom": "%", "reported_result": 5.21}
{"structure_notation": "O=C(c1csnn1)N1CCC2(CC1)CCN(C(c1ccccc1)c1ccccc1)CC2", "measurement_kind": "activity change, negative = inhibition", "uom": "%", "reported_result": -2.09}
{"structure_notation": "O=C(c1ccco1)N1CCC2(CC1)CCN(C(c1ccccc1)c1ccccc1)CC2", "measurement_kind": "activity change, negative = inhibition", "uom": "%", "reported_result": 3.39}
{"structure_notation": "Cn1cccc1C(=O)N1CCC2(CCN(Cc3ccc(C#N)cc3)CC2)CC1", "measurement_kind": "activity change, negative = inhibition", "uom": "%", "reported_result": 0.873}
{"structure_notation": "CN(C)C(=O)c1ccc(-c2nc(NCc3cccnc3)c3ccccc3n2)cc1", "measurement_kind": "activity change, negative = inhibition", "uom": "%", "reported_result": 8.76}
{"structure_notation": "CN(C)c1ncc2nc(-c3ccc(F)cc3)c(=O)n(C3CC3)c2n1", "measurement_kind": "activity change, negative = inhibition", "uom": "%", "reported_result": 2.01}
{"structure_notation": "COc1ccccc1CN1CC[C@@]2(CCCN(C(=O)c3cnccn3)C2)C1", "measurement_kind": "activity change, negative = inhibition", "uom": "%", "reported_result": 3.53}
{"structure_notation": "C[n+]1cccc(C(=O)[O-])c1", "measurement_kind": "activity change, negative = inhibition", "uom": "%", "reported_result": 6.06}

Give the measured activity change, negative = inhibition of Clc1ccccc1-c1nc(NC2CCNCC2)c2ccccc2n1 .
1.68

What do you have for CC(C)CN1CCC2(CC1)CCN(C(=O)c1ccco1)CC2 ?
-0.991

Lookup CC(C)CN1CCCC2(CCN(C(=O)c3cccn3C)CC2)C1
6.1

# repeat for COc1ccccc1-c1nccc(NCc2cccc(C)c2)n1
-4.4

Follow-up entry: O=C(c1cccc(F)c1)N1CCC[C@@]2(CCN(c3ncccn3)C2)C1
3.33

Next record, please: COc1cccc(-c2cc(NCCc3c[nH]c4ccc(OC)cc34)ncn2)c1
7.02

Another: COc1ccc(C(=O)N2CCC3(CCN(CC(C)C)CC3)CC2)cc1
-2.62

Likewise for CC(=O)N1CCC2(CC1)CN(Cc1ccc(C#N)cc1)C2 ?
-1.35

What about this molecule? COc1ccccc1-c1nc(NCc2cnc(C)cn2)c2ccccc2n1
7.28

Item: CC(C)CN1CC2(CCN(C(=O)c3cccc(F)c3)CC2)C1
2.36

Can you handle O=C(c1cc(C(F)(F)F)cc(C(F)(F)F)c1)N1CCC2(CCN(Cc3ccccc3)CC2)CC1 next?
2.31

Follow-up item: O=c1ccc2cc(O)c(O)cc2o1
-7.91

---

test system: JCK; assay: qHTS profiling for inhibitors of Plasmodium falciparum proliferation (AID 504749);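 also: 0% = DMSO vehicle and full inhibition = artemisinin control; nearly all actives have a fitted effect of over 60% in size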; settings: P. falciparum in erythrocytes, SYBR Green DNA, 72 h; series mostly up to 12.8 µM
Results filed as inconclusive are left out. Active and inactive are the calls of the source. The call rests on the fitted dose curve; in most records, active means well fitted inhibition curve with a large enough effect; inconclusive means small, poorly fitted or top-dose-only effect; inactive means flat fitted curve, though single readings scatter.
Your response should consist of one outcome taken from active, inactive

The following compounds have reported results that may help.
{"compound": "NS(=O)(=O)c1cc([C@@]2(O)NC(=O)c3ccccc32)ccc1Cl", "label_class": "inactive"}
{"compound": "C[C@@H]1COc2c(N3CCN(C)CC3)c(F)cc3c(=O)c(C(=O)O)cn1c23", "label_class": "inactive"}
{"compound": "CCCN(CCC)C(=O)[C@@H](CCC(=O)O)NC(=O)c1ccccc1", "label_class": "inactive"}
{"compound": "CCN1C(=O)N[C@@H](c2ccccc2)C1=O", "label_class": "inactive"}
{"compound": "C[C@@H]1CCC[C@H](C)N1NC(=O)c1ccc(Cl)c(S(N)(=O)=O)c1", "label_class": "inactive"}

Here is another compound to look at.
Recorded test call requested for CC1(C)Oc2ccc(C#N)cc2[C@H](N2CCCC2=O)[C@H]1O
inactive

---

assay: qHTS Assay for Lipid Storage Modulators (AID 1519); settings: Drosophila S3 cells, BODIPY lipid droplet/cell ratio, laser cytometry; measured here: lipid channel max response; cells loaded with oleic acid
Records with an inconclusive call do not appear.
max response by entry:
Record the value in %, omitting the unit from your answer.

Some solved entries appear below for comparison.
{"molecule": "COCC(=O)N1CCC2(CC1)CCN(c1cccc(-c3ccccc3)c1)CC2", "max response, %": -7.13}
{"molecule": "O=C(c1ccncc1)N1CCC2(CCN(Cc3ccccc3)CC2)CC1", "max response, %": 18.6}
{"molecule": "O=c1cc(-c2ccc(O)c(O)c2)oc2cc(OC3OC(CO)C(O)C(O)C3O)cc(O)c12 (stereo unspecified)", "max response, %": 11.2}
{"molecule": "C=CC(C)(O)CCC=C(C)C (stereo unspecified)", "max response, %": -25.1}
{"molecule": "CC(=O)N1CCC[C@@]2(CCN(C(c3ccccc3)c3ccccc3)C2)C1", "max response, %": -8.87}

Param item = COc1ccc(Oc2ncc3nc(-c4ccc(OC)cc4)c(=O)n(CCC#N)c3n2)cc1 ; retrieve measured max response.
21

Another molecule: O=C(c1cnccn1)N1CCC2(CCCN(C(c3ccccc3)c3ccccc3)C2)CC1
7.68

One more molecule: Cn1c(=O)c2c(ncn2C[C@@H](O)CO)n(C)c1=O
-0.706

// repeat for CC[C@]1(C)CC(=O)NC1=O and report
7.01

Would you kindly repeat that for c1ccc(-c2cccc(N3CCCC4(CCNCC4)C3)c2)cc1 ?
1.36

Same question for O=C(c1cccc(F)c1)N1CCC2(CC1)CN(Cc1ccccc1)C2 please.
-4.23

Now give it for COc1ccc(C[C@@H]2c3cc(OC)c(OC)cc3CC[N@+]2(C)CCC(=O)OCCCCCOC(=O)CC[N@@+]2(C)CCc3cc(OC)c(OC)cc3[C@H]2Cc2ccc(OC)c(OC)c2)cc1OC too.
6.6

Repeat for the following molecule: CC(C)NC(=O)N1CC[C@@]2(CCCN(C(=O)c3cnccn3)C2)C1
5.89

Lookup CC[C@H](NC(C)C)[C@H](O)c1ccc(O)c(O)c1
-11.2

Same lookup for CN1CCN(c2ncc3nc(-c4ccccc4)c(=O)n(C)c3n2)CC1 , please.
18.5

Cn1cccc1C(=O)N1CCC2(CCCN(C(c3ccccc3)c3ccccc3)C2)CC1 ?
18.7
